details: 293.15 K; 100 kPa; Liquid
Numbers after ± are expanded uncertainties.
quantity.name: mass density

>>> observed_result("CCCO")
"803.49 ± 0.43 kg/m3"
>>> observed_result("CCOS(=O)(=O)[O-].CC[NH+]=C(N(C)C)N(C)C [2-ethyl-1,1,3,3-tetramethylguanidinium ethyl sulfate]")
"1170.76 ± 1.5 kg/m3"
>>> observed_result("CCO")
"789.62 ± 0.46 kg/m3"

Let's switch to this compound now.
Qu. GET /values?readout=mass density&item= "CC[NH+]=C(N(C)C)N(C)C.O=S(=O)([N-]S(=O)(=O)C(F)(F)F)C(F)(F)F"
Ans. 1414.89 ± 12 kg/m3

----------
Exercise: state measured viscosity for each of the compounds provided.
settings: 298.15 K; 100 kPa; Liquid
Answers are plain numbers, in mPa·s.

Example compounds with recorded viscosity:
>>> observed_result("CC[NH+]=C(N(C)C)N(C)C.O=S(=O)([N-]S(=O)(=O)C(F)(F)F)C(F)(F)F")
58.86
>>> observed_result("CCOS(=O)(=O)[O-].CC[NH+]=C(N(C)C)N(C)C [2-ethyl-1,1,3,3-tetramethylguanidinium ethyl sulfate]")
441.5
>>> observed_result("CCO [ethanol]")
1.071

Let's switch to this compound now.
Qu. GET /values?readout=viscosity&item= CCCO [propan-1-ol]
Ans. 1.948

----------
conditions: 318.15 K; 100 kPa; Liquid
quantity.name: mass density (kg/m3)
Give bare numbers, in kg/m3.

Example compounds with recorded mass density:
>>> observed_result("CC[NH+]=C(N(C)C)N(C)C.O=S(=O)([N-]S(=O)(=O)C(F)(F)F)C(F)(F)F")
1390.8
>>> observed_result("CCOS(=O)(=O)[O-].CC[NH+]=C(N(C)C)N(C)C [2-ethyl-1,1,3,3-tetramethylguanidinium ethyl sulfate]")
1153.33
>>> observed_result("CCCO")
783.14

Let's switch to this compound now.
Qu. GET /values?readout=mass density&item= "CCO"
Ans. 767.71

----------
details: 303.15 K; 100 kPa; Liquid
quantity.name: mass density (kg/m3)
Numbers only, in kg/m3.

Example compounds with recorded mass density:
>>> observed_result("CC[NH+]=C(N(C)C)N(C)C.O=S(=O)([N-]S(=O)(=O)C(F)(F)F)C(F)(F)F")
1405.19
>>> observed_result("CCCO")
795.46

I have 2 compounds here; please give me mass density for each one.
1. CCOS(=O)(=O)[O-].CC[NH+]=C(N(C)C)N(C)C [2-ethyl-1,1,3,3-tetramethylguanidinium ethyl sulfate]
2. CCO

Ans.
1. 1163.76
2. 780.89

----------
conditions: 298.15 K; 100 kPa; Liquid
quantity.name: mass density (kg/m3)
One number for each entry, in kg/m3.

Example compounds with recorded mass density:
>>> observed_result("CCCO")
799.49
>>> observed_result("CC[NH+]=C(N(C)C)N(C)C.O=S(=O)([N-]S(=O)(=O)C(F)(F)F)C(F)(F)F")
1410.03
>>> observed_result("CCOS(=O)(=O)[O-].CC[NH+]=C(N(C)C)N(C)C [2-ethyl-1,1,3,3-tetramethylguanidinium ethyl sulfate]")
1167.24

Qu. GET /values?readout=mass density&item= "CCO"
Ans. 785.25

----------
details: 313.15 K; 100 kPa; Liquid
Numbers after ± are expanded uncertainties.
Exercise: state measured mass density for each of the compounds provided.

Example compounds with recorded mass density:
>>> observed_result("CCO")
"772.12 ± 0.49 kg/m3"
>>> observed_result("CC[NH+]=C(N(C)C)N(C)C.O=S(=O)([N-]S(=O)(=O)C(F)(F)F)C(F)(F)F")
"1395.59 ± 12 kg/m3"

I have 2 compounds here; please give me mass density for each one.
1. CCOS(=O)(=O)[O-].CC[NH+]=C(N(C)C)N(C)C [2-ethyl-1,1,3,3-tetramethylguanidinium ethyl sulfate]
2. CCCO

Ans.
["1156.8 ± 1.4 kg/m3", "787.29 ± 0.46 kg/m3"]

----------
conditions: 313.15 K; 100 kPa; Liquid
Numbers after ± are expanded uncertainties.
quantity.name: viscosity
Form entry: enter the amount, then its unit.

>>> observed_result("CCO [ethanol]")
"0.822 ± 0.033 mPa·s"
>>> observed_result("CC[NH+]=C(N(C)C)N(C)C.O=S(=O)([N-]S(=O)(=O)C(F)(F)F)C(F)(F)F")
"32.2 ± 1.5 mPa·s"
>>> observed_result("CCOS(=O)(=O)[O-].CC[NH+]=C(N(C)C)N(C)C [2-ethyl-1,1,3,3-tetramethylguanidinium ethyl sulfate]")
"157.2 ± 31 mPa·s"

Qu. GET /values?readout=viscosity&item= CCCO [propan-1-ol]
Ans. 1.366 ± 0.055 mPa·s

----------
conditions: 318.15 K; 100 kPa; Liquid
Exercise: state measured viscosity for each of the compounds provided.
Answers are plain numbers, in mPa·s.

Example compounds with recorded viscosity:
>>> observed_result("CCCO [propan-1-ol]")
1.228
>>> observed_result("CCOS(=O)(=O)[O-].CC[NH+]=C(N(C)C)N(C)C [2-ethyl-1,1,3,3-tetramethylguanidinium ethyl sulfate]")
118.3
>>> observed_result("CCO [ethanol]")
0.756

Let's switch to this compound now.
Qu. GET /values?readout=viscosity&item= "CC[NH+]=C(N(C)C)N(C)C.O=S(=O)([N-]S(=O)(=O)C(F)(F)F)C(F)(F)F"
Ans. 27.09

----------
details: 323.15 K; 100 kPa; Liquid
± gives the expanded uncertainty stated by the source.
quantity.name: mass density
Form entry: enter the amount, then its unit.

Example compounds with recorded mass density:
>>> observed_result("CCOS(=O)(=O)[O-].CC[NH+]=C(N(C)C)N(C)C [2-ethyl-1,1,3,3-tetramethylguanidinium ethyl sulfate]")
"1149.87 ± 1.4 kg/m3"
>>> observed_result("CCO")
"763.26 ± 0.5 kg/m3"
>>> observed_result("CCCO")
"778.93 ± 0.47 kg/m3"

Qu. GET /values?readout=mass density&item= "CC[NH+]=C(N(C)C)N(C)C.O=S(=O)([N-]S(=O)(=O)C(F)(F)F)C(F)(F)F"
Ans. 1386.03 ± 12 kg/m3

----------
details: 323.15 K; 100 kPa; Liquid
quantity.name: viscosity (mPa·s)
Give bare numbers, in mPa·s.

>>> observed_result("CCO [ethanol]")
0.698
>>> observed_result("CCCO [propan-1-ol]")
1.107
>>> observed_result("CCOS(=O)(=O)[O-].CC[NH+]=C(N(C)C)N(C)C [2-ethyl-1,1,3,3-tetramethylguanidinium ethyl sulfate]")
91.22

Let's switch to this compound now.
Qu. GET /values?readout=viscosity&item= "CC[NH+]=C(N(C)C)N(C)C.O=S(=O)([N-]S(=O)(=O)C(F)(F)F)C(F)(F)F"
Ans. 23.14

----------
settings: 303.15 K; 100 kPa; Liquid
Numbers after ± are expanded uncertainties.
Exercise: state measured viscosity for each of the compounds provided.

Example compounds with recorded viscosity:
>>> observed_result("CCOS(=O)(=O)[O-].CC[NH+]=C(N(C)C)N(C)C [2-ethyl-1,1,3,3-tetramethylguanidinium ethyl sulfate]")
"302.5 ± 95 mPa·s"
>>> observed_result("CCCO [propan-1-ol]")
"1.707 ± 0.069 mPa·s"
>>> observed_result("CC[NH+]=C(N(C)C)N(C)C.O=S(=O)([N-]S(=O)(=O)C(F)(F)F)C(F)(F)F")
"47.27 ± 2.3 mPa·s"

Qu. GET /values?readout=viscosity&item= CCO [ethanol]
Ans. 0.978 ± 0.04 mPa·s

----------
Exercise: state measured mass density for each of the molecules provided.
details: 308.15 K; 100 kPa; Liquid
Numbers only, in kg/m3.

>>> observed_result("CCCO [propan-1-ol]")
791.39

I have 3 molecules here; please give me mass density for each one.
1. CCO [ethanol]
2. CC[NH+]=C(N(C)C)N(C)C.O=S(=O)([N-]S(=O)(=O)C(F)(F)F)C(F)(F)F
3. CCOS(=O)(=O)[O-].CC[NH+]=C(N(C)C)N(C)C [2-ethyl-1,1,3,3-tetramethylguanidinium ethyl sulfate]

Ans.
1: 776.52; 2: 1400.38; 3: 1160.28

----------
conditions: 293.15 K; 100 kPa; Liquid
± gives the expanded uncertainty stated by the source.
Exercise: state measured viscosity for each of the molecules provided.
Form entry: enter the amount, then its unit.

Example molecules with recorded viscosity:
>>> observed_result("CCCO [propan-1-ol]")
"2.164 ± 0.087 mPa·s"
>>> observed_result("CC[NH+]=C(N(C)C)N(C)C.O=S(=O)([N-]S(=O)(=O)C(F)(F)F)C(F)(F)F")
"74.61 ± 5.5 mPa·s"
>>> observed_result("CCO [ethanol]")
"1.177 ± 0.047 mPa·s"

Let's switch to this molecule now.
Qu. GET /values?readout=viscosity&item= CCOS(=O)(=O)[O-].CC[NH+]=C(N(C)C)N(C)C [2-ethyl-1,1,3,3-tetramethylguanidinium ethyl sulfate]
Ans. 673.4 ± 300 mPa·s
